Numbers sourced from PubChem BioAssay.

# protocolSummary: hepatitis C replication reporter changes, two-sided – Huh7 cells, luciferase reporter, HCV replication inhibitor project, primary screen (AID 1109);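 note: huh7 hepatoma cells harbouring a luciferase neomycin HCV replicon reporter; luciferase luminescence as measure of HCV replicon replication; test concentration not given here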
# cond: Huh7 HCV replicon luciferase reporter, 48 h; higher = more signal
Rule: z-score under -2 gives class 0, otherwise class 1.

**Query** Is z-score for CC[C@@H]1C=C(C(=O)O)[C@H](c2ccc(C)cc2)N1S(=O)(=O)c1ccc(C)cc1 at or above -2?
**Result** class 1

**Query** Moving on to the next compound: CO[C@H]1O[C@H](CO)[C@@H](OC(=O)Nc2ccc(Br)cc2)[C@@H]2OC(=O)[C@H](Cc3cccc(Br)c3)C/C=C/C[C@@H](Cc3cccc(Br)c3)C(=O)O[C@@H]12
**Result** class 0

**Query** What do we get for CC1CC/C=C\[C@H]2OC34C=CCN(Cc5ccccc5)C(=O)[C@H]3N(C(C)CO)C(=O)[C@@H]4C2C(=O)O1 (stereo not given in full) ?
**Result** class 1

**Query** Try this compound too: Cc1ccc(S[C@]2(C(=O)O)CC(=O)N(C(C)C)[C@@H]2c2ccc(CO)cc2)cc1
**Result** class 1

**Query** Same for COC(=O)[C@]1(Cc2ccccc2)N=C(c2ccc(OCCCO)cc2)O[C@@H]1c1ccccc1N=[N+]=[N-]
**Result** class 0

**Query** What do we get for O=C1C[C@@](C(=O)NCc2ccccc2)(c2ccc([N+](=O)[O-])cc2)[C@@H](c2ccc(CO)cc2)N1CC12CC3CC(CC(C3)C1)C2 ?
**Result** class 0

**Query** Next compound up: CC(C)[Si](C#CCCCC#N)(O[C@H](c1ccccc1)c1cn(Cc2cccc(Cl)c2)nn1)C(C)C
**Result** class 1

**Query** // query: C[N+](C)(C)CCCC[C@@H]1NC(=O)[C@@H]2C[C@H](C(=O)NCCCCCCNC(=O)CS)[C@H](c3ccc(O)cc3)N2C1=O
**Result** class 1
